Target: T1, human TREM2 (human, UniProt Q9NZC2 19-230)
T1 construct: on THP-1 WT cells and M2a-like macrophages (endogenous) and on CHO or HEK293T cells overexpressing human TREM2 with DAP12; also called hTREM2
T1 sequence: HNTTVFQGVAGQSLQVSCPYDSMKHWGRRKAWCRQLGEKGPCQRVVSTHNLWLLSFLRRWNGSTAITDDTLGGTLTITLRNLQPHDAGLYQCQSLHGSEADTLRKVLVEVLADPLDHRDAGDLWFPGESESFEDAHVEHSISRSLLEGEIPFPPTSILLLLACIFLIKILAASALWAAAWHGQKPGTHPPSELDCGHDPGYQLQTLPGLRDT
Test: flow cytometry, M2a-like macrophages, dose-response
PARAMETER: Kd (nM)
Enter your answer as a number in nM; do not include the unit.

What measured Kd goes with EOS006166 (antibody, V domains shown) VH: EVQLVESGGGLVQPGRSLRLSCTASGFTFGDYAMSWFRQAPGKGLEWVGFIGSKAYGGTTEYTASVKGRFTISRDGSKSIAYLQMNSLKTEDTAVYYCARGKRYSYGYWHPAFDVWGQGTMVTVSS VL: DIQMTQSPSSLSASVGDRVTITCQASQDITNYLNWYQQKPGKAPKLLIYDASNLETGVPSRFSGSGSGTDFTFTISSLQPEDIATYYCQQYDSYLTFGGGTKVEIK ?
1.21
